Reported TGI values follow for various molecules
- Tested on: SK-MEL-2 melanoma
- assay overview: NCI tumour cell line growth inhibition, 48 h

The following molecules have reported results that may help.
Cc1cc(NCCCCNc2ccnc3cc(Cl)ccc23)nc(Nc2ccc(C(=O)N3CCCC3)cc2)n1; 4.27 µM
CC1C=CC(C)C2(O)C(=O)NC(O)C12 (stereo unspecified); > 100 µM
COc1cc(-n2cc(-c3ccc(F)cc3)[nH]c2=S)cc(OC)c1OC; > 100 µM
CS(=O)(=O)Nc1cccc(-c2ccc3c(NC(=O)C4CC4)n[nH]c3c2)c1; > 25 µM
O=C(O)CSc1nnc(CCCCCCCCc2nnc(SCC(=O)O)o2)o1; > 100 µM

input: Fill in the recorded TGI for this molecule, with SK-MEL-2 melanoma as test system: c1ccc2c(Nc3ccc(Oc4ccc(Nc5c6ccccc6nc6ccccc56)cc4)cc3)c3ccccc3nc2c1
output: 3.78 µM
